- SYSTEM TESTED: EGFR L858R/T790M/C797S (Homo sapiens, UniProt P00533, C797S/L858R/T790M)
- Sequence (P00533 25-1210 T790M/C797S/L858R): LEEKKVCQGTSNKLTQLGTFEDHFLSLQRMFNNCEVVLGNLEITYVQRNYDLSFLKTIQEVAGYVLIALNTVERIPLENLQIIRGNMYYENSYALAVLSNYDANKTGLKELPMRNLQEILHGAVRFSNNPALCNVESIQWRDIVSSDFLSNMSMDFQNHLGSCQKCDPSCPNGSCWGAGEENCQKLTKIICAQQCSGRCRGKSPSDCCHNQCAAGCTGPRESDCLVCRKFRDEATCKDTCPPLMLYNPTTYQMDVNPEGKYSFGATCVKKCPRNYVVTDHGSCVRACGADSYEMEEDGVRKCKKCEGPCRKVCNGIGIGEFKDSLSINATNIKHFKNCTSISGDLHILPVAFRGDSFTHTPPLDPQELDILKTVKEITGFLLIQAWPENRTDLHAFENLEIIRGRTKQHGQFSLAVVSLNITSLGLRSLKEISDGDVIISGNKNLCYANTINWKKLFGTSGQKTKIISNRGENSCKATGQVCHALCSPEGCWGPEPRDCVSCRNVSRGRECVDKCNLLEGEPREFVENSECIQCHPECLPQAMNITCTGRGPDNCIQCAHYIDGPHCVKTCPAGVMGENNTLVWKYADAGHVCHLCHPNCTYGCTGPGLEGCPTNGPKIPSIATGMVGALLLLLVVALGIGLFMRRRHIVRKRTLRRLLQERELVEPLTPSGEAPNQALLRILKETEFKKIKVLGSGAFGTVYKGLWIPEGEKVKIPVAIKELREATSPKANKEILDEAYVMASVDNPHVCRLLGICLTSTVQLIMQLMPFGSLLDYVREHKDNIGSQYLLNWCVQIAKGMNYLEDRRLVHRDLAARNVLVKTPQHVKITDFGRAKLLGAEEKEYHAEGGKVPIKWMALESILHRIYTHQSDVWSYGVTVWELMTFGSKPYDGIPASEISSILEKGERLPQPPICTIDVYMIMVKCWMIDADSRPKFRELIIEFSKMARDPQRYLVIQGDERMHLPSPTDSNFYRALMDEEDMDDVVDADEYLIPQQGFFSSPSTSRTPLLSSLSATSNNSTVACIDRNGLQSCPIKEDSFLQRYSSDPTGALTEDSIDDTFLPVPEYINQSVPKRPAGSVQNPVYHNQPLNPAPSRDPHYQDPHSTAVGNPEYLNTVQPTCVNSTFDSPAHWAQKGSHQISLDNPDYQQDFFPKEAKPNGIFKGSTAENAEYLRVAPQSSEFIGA
- TEST SUMMARY: Biochemical EGFR kinase assay (Lance Ultra TR-FRET), triple mutant L858R/T790M/C797S
- REPORTED CONDITIONS: ATP at Km; read-out: IC50 L858R/T790M/C797S, Km ATP
METRIC NAME: pIC50
Conceptually, pIC50 converts a concentration in mol/L into minus its log10.

Input line: Request: pIC50, test system EGFR L858R/T790M/C797S (Homo sapiens, UniProt P00533, C797S/L858R/T790M), entry CC(C)Nc1cc(Nc2ccnc(-c3cnn(S(=O)(=O)C4CC4)c3)n2)ncc1-c1ccc(OC2CCN(C)CC2)cn1
Output line: 9.70

Input line: Now give it for CN(C)CCNc1ccnc(-c2cnc(Nc3ccnc(-c4cnn(S(=O)(=O)C5CC5)c4)n3)cc2N[C@H]2CC[C@@](C)(O)CC2)c1 too.
Output line: 9.70

Input line: Now give it for CC(F)(F)c1ccc(-c2cnc(Nc3ccnc(-c4cnn(S(=O)(=O)C5CC5)c4)n3)cc2N[C@H]2CC[C@@H](C(C)(C)O)CC2)nc1 too.
Output line: 8.60

---

- SYSTEM TESTED: EGFR del19/C797S (Homo sapiens, UniProt P00533, C797S/DEL746-750)
- Sequence (P00533 with tags, fused parts or gaps DEL746-750/C797S): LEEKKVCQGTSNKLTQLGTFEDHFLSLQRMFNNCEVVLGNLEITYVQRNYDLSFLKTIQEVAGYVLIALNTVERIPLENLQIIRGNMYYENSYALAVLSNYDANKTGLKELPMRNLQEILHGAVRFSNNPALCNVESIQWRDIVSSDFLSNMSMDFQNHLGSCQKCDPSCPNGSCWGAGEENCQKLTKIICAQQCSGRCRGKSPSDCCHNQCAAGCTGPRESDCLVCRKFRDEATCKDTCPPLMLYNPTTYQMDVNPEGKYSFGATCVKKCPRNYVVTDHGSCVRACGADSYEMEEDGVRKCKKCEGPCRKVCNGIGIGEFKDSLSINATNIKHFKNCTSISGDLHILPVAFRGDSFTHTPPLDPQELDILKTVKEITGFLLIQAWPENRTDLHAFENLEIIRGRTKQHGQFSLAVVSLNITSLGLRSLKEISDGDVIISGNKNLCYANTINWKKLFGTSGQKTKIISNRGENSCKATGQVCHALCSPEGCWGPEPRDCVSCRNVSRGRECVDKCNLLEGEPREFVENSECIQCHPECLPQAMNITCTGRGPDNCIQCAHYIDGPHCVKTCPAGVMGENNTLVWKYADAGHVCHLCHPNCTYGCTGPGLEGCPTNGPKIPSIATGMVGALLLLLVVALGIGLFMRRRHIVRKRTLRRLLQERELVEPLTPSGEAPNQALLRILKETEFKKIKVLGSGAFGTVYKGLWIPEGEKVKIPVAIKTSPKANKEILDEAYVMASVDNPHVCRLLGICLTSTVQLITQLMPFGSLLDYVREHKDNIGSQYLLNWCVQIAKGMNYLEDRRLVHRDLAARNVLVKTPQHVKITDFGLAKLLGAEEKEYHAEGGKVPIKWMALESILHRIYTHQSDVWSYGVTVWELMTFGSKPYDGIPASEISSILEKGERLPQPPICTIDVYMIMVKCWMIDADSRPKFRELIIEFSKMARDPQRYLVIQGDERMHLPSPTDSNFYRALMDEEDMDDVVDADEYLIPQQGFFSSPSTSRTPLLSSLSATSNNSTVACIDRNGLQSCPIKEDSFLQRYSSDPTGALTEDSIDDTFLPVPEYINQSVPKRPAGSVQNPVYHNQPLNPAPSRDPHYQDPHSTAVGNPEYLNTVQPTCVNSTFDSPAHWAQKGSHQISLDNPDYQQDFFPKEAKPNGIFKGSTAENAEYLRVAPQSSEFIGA
- TEST SUMMARY: Biochemical EGFR kinase assay (Lance Ultra TR-FRET), double mutant del19/C797S
- REPORTED CONDITIONS: Km ATP; read-out: IC50 del19/C797S (nM) Km ATP
- Experimental: Biochemical EGFR kinase assays were conducted using Lance Ultra time-resolved fluorescence resonance energy transfer (TR-FRET) technology from Perkin-Elmer. […] Each kinase reactions were incubated at room temperature for 1 hour and then stopped by the addition of 4 μL of stop solution (10 mM EDTA). […] After 60 minutes incubation at room temperature the LANCE signal was measured on an EnVision Multilabel Reader (Perkin-Elmer). […]
Flag rule - IC50 less than 0.2 nM flags 1; the remaining entries get -1.

Input line: Is 0.2 nM strictly greater than the molecule's reported IC50? molecule: Cc1ccc(-c2cnc(Nc3ccnc(-c4cnn(S(=O)(=O)C5CC5)c4)n3)cc2N[C@H]2CC[C@@](C)(O)CC2)nn1
Output line: -1

Input line: Now give it for CN(C)C[C@H]1CC[C@@H](Nc2cc(Nc3ccnc(-c4cnn(S(=O)(=O)C5CC5)c4)n3)ncc2-c2cc(N3CCC(F)(F)CC3)ccn2)CC1 too.
Output line: -1

Input line: Now give it for C[C@]1(O)CC[C@@H](Nc2cc(Nc3ccnc(-c4cnn(S(=O)(=O)C5CC5)c4)n3)ncc2-c2cnc(CO)cn2)CC1 too.
Output line: -1

Input line: Now give it for CN(C)C[C@H]1CC[C@@H](Nc2cc(Nc3ccnc(-c4cnn(S(=O)(=O)C5CC5)c4)n3)ncc2-c2cc(C(C)(C)O)c(F)cn2)CC1 too.
Output line: 1

Input line: Now give it for C[C@]1(O)CC[C@@H](Nc2cc(Nc3ccnc(-c4cnn(S(=O)(=O)C5CC5)c4)n3)ncc2-c2ccc(N3CC(F)(F)C3)nn2)CC1 too.
Output line: -1

---

- SYSTEM TESTED: EGFR L858R/C797S (Homo sapiens, UniProt P00533, C797S/L858R)
- Sequence (P00533 25-1210 C797S/L858R): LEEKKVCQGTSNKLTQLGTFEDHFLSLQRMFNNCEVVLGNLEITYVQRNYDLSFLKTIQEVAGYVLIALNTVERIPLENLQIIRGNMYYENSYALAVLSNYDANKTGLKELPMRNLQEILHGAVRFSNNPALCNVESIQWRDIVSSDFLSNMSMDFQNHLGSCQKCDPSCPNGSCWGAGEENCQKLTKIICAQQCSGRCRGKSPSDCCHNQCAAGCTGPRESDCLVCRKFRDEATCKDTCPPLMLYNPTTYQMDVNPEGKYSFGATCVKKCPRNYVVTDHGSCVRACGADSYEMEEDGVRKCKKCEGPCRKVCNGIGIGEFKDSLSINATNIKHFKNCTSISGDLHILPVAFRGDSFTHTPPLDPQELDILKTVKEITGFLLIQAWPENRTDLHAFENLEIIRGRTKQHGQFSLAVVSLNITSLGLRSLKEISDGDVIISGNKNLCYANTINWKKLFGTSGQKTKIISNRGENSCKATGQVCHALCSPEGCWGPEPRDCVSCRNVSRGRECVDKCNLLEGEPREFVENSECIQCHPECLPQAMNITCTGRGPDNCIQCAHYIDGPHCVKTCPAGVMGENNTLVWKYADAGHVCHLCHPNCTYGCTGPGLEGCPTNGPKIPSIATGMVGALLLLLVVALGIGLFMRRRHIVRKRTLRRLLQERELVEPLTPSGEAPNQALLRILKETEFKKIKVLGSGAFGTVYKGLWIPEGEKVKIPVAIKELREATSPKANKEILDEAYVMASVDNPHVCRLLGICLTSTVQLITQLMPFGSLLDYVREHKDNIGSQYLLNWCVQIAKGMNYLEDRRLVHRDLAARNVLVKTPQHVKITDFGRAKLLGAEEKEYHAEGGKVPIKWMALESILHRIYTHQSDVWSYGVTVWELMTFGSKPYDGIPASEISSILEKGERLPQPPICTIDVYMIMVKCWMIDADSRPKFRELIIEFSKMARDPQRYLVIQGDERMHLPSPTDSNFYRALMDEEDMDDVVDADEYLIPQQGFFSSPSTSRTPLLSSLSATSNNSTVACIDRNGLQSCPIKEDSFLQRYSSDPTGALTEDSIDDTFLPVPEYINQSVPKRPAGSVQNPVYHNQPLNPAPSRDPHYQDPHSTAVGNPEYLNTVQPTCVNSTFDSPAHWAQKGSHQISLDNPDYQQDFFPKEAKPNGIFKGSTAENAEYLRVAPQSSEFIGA
- TEST SUMMARY: Biochemical EGFR kinase assay (Lance Ultra TR-FRET), double mutant L858R/C797S
- REPORTED CONDITIONS: ATP at Km; read-out: IC50 L858R/C797S, Km ATP
So I've got a bunch of compounds here, and I need their IC50 values.
The answer is to be given in nM; state only the numeric part.

Input line: Reported IC50, compound O=S(=O)(C1CC1)n1cc(-c2nccc(Nc3cc(N[C@H]4CCC[C@H](CO)C4)c(-c4ccc(CC(F)(F)F)cn4)cn3)n2)cn1 [Example 222] : ____
Output line: 11.7

Input line: Now give it for CC(O)(c1ccc(-c2cnc(Nc3ccnc(-c4cnn(S(=O)(=O)C5CC5)c4)n3)cc2NC2CCC(F)CC2)nc1)C(F)(F)F (stereo not drawn) [Example 265] too.
Output line: 85.3

Input line: Now give it for CN(C)CCNc1ccnc(-c2cnc(Nc3ccnc(-c4cnn(S(=O)(=O)C5CC5)c4)n3)cc2N[C@H]2CC[C@@](C)(O)CC2)c1 [Example 276] too.
Output line: 0.7

---

- SYSTEM TESTED: EGFR wildtype (Homo sapiens, UniProt P00533)
- TEST SUMMARY: Biochemical EGFR kinase assay (Lance Ultra TR-FRET), wildtype
- REPORTED CONDITIONS: IC50 WT (nM) 100 μM ATP, 100 μM ATP
METRIC NAME: IC50 (nM)
The answer is to be given in nM; state only the numeric part.

Input line: Reported IC50, compound CC(C)(O)c1cnc(-c2cnc(Nc3ccnc(-c4cnn(S(=O)(=O)C5CC5)c4)n3)cc2N[C@H]2CC[C@@H](CO)CC2)cn1 [Example 119] : ____
Output line: 108

Input line: Now give it for CN(C)c1ccc(-c2cnc(Nc3ccnc(-c4cnn(S(=O)(=O)C5CC5)c4)n3)cc2N[C@H]2CC[C@@](C)(O)CC2)nc1 [Example 40] too.
Output line: 1440

Input line: Now give it for Cc1ccnc(-c2cnc(Nc3ccnc(-c4cnn(S(=O)(=O)C5CC5)c4)n3)cc2N[C@H]2CC[C@@](C)(O)CC2)c1 [Example 12] too.
Output line: 2690

Input line: Now give it for CC(C)(O)c1ccnc(-c2cnc(Nc3ccnc(-c4cnn(S(=O)(=O)C5CC5)c4)n3)cc2N[C@H]2CC[C@@](C)(O)CC2)c1 [Example 108] too.
Output line: 1860

Input line: Now give it for CC(C)(O)c1ccc(-c2cnc(Nc3ccnc(-c4cnn(S(=O)(=O)C5CC5)c4)n3)cc2N[C@H]2CC[C@@](C)(O)CC2)nn1 [Example 86] too.
Output line: 1480

Input line: Now give it for O=S(=O)(C1CC1)n1cc(-c2nccc(Nc3cc(N[C@H]4CC[C@@H](CO)CC4)c(-c4cc(N5CCC(F)(F)CC5)ccn4)cn3)n2)cn1 [Example 100] too.
Output line: 7220

Input line: Now give it for CN(C)C[C@H]1CC[C@@H](Nc2cc(Nc3ccnc(-c4cnn(S(=O)(=O)C5CC5)c4)n3)ncc2-c2cc(N3CCC(F)(F)CC3)ccn2)CC1 [Example 101] too.
Output line: 575

Input line: Now give it for CN1CCN(Cc2ccc(-c3cnc(Nc4ccnc(-c5cnn(S(=O)(=O)C6CC6)c5)n4)cc3N[C@H]3CC[C@@](C)(O)CC3)nc2)CC1 [Example 9] too.
Output line: 167

Input line: Now give it for CC(C)(O)[C@H]1CC[C@@H](Nc2cc(Nc3ccnc(-c4cnn(S(=O)(=O)C5CC5)c4)n3)ncc2-c2ccc(N3CCOCC3)cn2)CC1 [Example 45] too.
Output line: 602

Input line: Now give it for O=S(=O)(C1CC1)n1cc(-c2nccc(Nc3cc(N[C@H]4CC[C@@H](CO)CC4)c(-c4ccc(N5CCC(F)(F)CC5)nn4)cn3)n2)cn1 [Example 69] too.
Output line: 4780

Input line: Now give it for CN(C)C[C@H]1CC[C@@H](Nc2cc(Nc3ccnc(-c4cnn(S(=O)(=O)C5CC5)c4)n3)ncc2-c2cnc(N3CCC(F)(F)CC3)cn2)CC1 [Example 74] too.
Output line: 1610

Input line: Now give it for CN1CCN(Cc2ccnc(-c3cnc(Nc4ccnc(-c5cnn(S(=O)(=O)C6CC6)c5)n4)cc3N[C@H]3CC[C@@](C)(O)CC3)c2)CC1 [Example 55] too.
Output line: 754

Input line: Now give it for O=S(=O)(C1CC1)n1cc(-c2nccc(Nc3cc(N[C@H]4CC[C@@H](CO)CC4)c(-c4cc(C(F)F)ccn4)cn3)n2)cn1 [Example 77] too.
Output line: 1560

Input line: Now give it for CN(C)C[C@H]1CC[C@@H](Nc2cc(Nc3ccnc(-c4cnn(S(=O)(=O)C5CC5)c4)n3)ncc2-c2ccc(N3CCC(F)(F)CC3)nn2)CC1 [Example 73] too.
Output line: 562

Input line: Now give it for CN1CCN(c2ccc(-c3cnc(Nc4ccnc(-c5cnn(S(=O)(=O)C6CC6)c5)n4)cc3N[C@H]3CC[C@@H](CO)CC3)nc2)CC1 [Example 85] too.
Output line: 31.7

---

- SYSTEM TESTED: EGFR del19/T790M/C797S (Homo sapiens, UniProt P00533, C797S/DEL746-750/T790M)
- Sequence (P00533 with tags, fused parts or gaps DEL746-750/T790M/C797S): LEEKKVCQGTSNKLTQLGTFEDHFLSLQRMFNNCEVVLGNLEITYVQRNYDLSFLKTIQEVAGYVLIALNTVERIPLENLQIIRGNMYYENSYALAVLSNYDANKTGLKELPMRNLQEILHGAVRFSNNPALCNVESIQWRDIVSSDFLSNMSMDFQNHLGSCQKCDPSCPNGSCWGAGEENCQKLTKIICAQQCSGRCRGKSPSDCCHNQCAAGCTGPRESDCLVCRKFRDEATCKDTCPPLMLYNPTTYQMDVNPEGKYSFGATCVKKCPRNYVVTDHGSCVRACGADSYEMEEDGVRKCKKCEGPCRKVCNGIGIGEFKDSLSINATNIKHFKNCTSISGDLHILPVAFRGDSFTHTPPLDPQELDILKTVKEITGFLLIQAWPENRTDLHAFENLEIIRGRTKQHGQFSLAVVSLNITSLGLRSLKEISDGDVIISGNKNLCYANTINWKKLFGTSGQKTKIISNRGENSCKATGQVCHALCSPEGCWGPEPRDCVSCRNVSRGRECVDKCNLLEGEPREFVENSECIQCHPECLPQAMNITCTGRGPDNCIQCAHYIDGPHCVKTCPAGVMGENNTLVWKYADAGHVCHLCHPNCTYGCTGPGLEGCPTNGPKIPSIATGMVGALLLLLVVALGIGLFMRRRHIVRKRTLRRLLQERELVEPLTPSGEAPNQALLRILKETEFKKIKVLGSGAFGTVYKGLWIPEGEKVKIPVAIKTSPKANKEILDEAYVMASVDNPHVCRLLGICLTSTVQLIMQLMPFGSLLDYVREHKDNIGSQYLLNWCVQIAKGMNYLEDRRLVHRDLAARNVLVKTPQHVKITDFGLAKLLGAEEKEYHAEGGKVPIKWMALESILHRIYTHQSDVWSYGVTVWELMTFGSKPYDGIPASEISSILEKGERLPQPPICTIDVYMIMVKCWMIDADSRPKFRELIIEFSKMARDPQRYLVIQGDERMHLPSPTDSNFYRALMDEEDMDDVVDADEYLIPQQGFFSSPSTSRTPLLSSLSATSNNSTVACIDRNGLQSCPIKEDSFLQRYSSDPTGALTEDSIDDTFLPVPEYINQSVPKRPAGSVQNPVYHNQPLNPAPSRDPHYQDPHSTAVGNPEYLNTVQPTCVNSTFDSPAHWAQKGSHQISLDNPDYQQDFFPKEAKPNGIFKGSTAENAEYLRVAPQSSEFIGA
- TEST SUMMARY: Biochemical EGFR kinase assay (Lance Ultra TR-FRET), triple mutant del19/T790M/C797S
- REPORTED CONDITIONS: ATP at Km; read-out: IC50 del19/T790M/C797S, Km ATP
So I've got a bunch of compounds here, and I need their IC50 values.
The answer is to be given in nM; state only the numeric part.

Input line: Reported IC50, compound O=S(=O)(C1CC1)n1cc(-c2nccc(Nc3cc(N[C@H]4CC[C@@H](CO)CC4)c(-c4cc(OCCN5CCOCC5)ccn4)cn3)n2)cn1 [Example 212] : ____
Output line: 0.5

Input line: Now give it for CN(C)S(=O)(=O)n1cc(-c2nccc(Nc3cc(NC4CCC(C)(O)CC4)c(-c4ccc(C(O)C(F)(F)F)cn4)cn3)n2)cn1 (stereo not drawn) [Example 297] too.
Output line: 1.6

Input line: Now give it for CN1CCC(Oc2ccc(-c3cnc(Nc4ccnc(-c5cnn(S(=O)(=O)C6CC6)c5)n4)cc3NC3CCCN(CCF)C3)nc2)CC1 (stereo not drawn) [Example 257] too.
Output line: 0.4

Input line: Now give it for C[C@]1(O)CC[C@@H](Nc2cc(Nc3ccnc(-c4cnn(S(=O)(=O)C5CC5)c4)n3)ncc2-c2ccc(N3CC(F)(F)C3)cn2)CC1 [Example 224] too.
Output line: 2

Input line: Now give it for C[C@]1(O)CC[C@@H](Nc2cc(Nc3ccnc(-c4cnn(S(=O)(=O)C5CC5)c4)n3)ncc2-c2ccc(OCCN3CCC3)cn2)CC1 [Example 290] too.
Output line: 0.4

Input line: Now give it for COC(c1ccc(-c2cnc(Nc3ccnc(-c4cnn(S(=O)(=O)C5CC5)c4)n3)cc2NC2CCC(C)(O)CC2)nc1)C(F)(F)F (stereo not drawn) [Example 260] too.
Output line: 6.9
